Assay: Pharmacokinetic profile and brain distribution in mice after oral administration
Assay type: in vivo, mice (ICR)
Details: male, ICR (CD-1), mouse, in vivo, oral 15 mg/kg, plasma

{"columns": ["substance smiles", "MRT last"],
 "data": [
  ["Cc1ccc2c(Nc3cccc(Cl)c3F)nccc2c1NC(=O)c1csc2c(N)ncnc12", "14.3 h"]
]}

---

Test: Pharmacokinetic profile and brain distribution in rats after oral administration
Format: in vivo, rats (SD)
Conditions: SD (Sprague-Dawley), rat, oral 30 mg/kg, plasma
assay metric: Cmax (ng/mL)

{"columns": ["substance smiles", "reported value"],
 "data": [
  ["Cc1ccc2c(Nc3cccc(Cl)c3F)nccc2c1NC(=O)c1csc2c(N)ncnc12", 4150]
]}
